Test system: PC-3
Experiment: SRB cell proliferation assay, PC-3
Type: cell-based
Settings: Homo sapiens, 18-Cell Line Panel, prostate
pIC50: −log10 of the molar value.
readout: pIC50

compound | result
CCC1C(=O)N(C)c2cnc(Nc3ccc(C(=O)NC4CCN(C)CC4)cc3OC)nc2N1C1CCCC1 (stereo not drawn) [BI 2536, reference compound] | > 6.00
CCC1C(=O)N(C)c2cnc(Nc3ccc(C(=O)NC4CCN(C)CC4)cc3OC)nc2N1N(C)C (racemic) [Compound 1] | > 6.00
CCC1C(=O)N(C)c2cnc(Nc3ccc(C(=O)N[C@H]4CC[C@H](N5CCN(CC6CC6)CC5)CC4)cc3OC)nc2N1N(C)C (relative stereo) [Compound 13] | > 6.00

----------
Biological target: Plk1 (Homo sapiens, UniProt P53350)
Sequence (P53350 whole entry, species assumed): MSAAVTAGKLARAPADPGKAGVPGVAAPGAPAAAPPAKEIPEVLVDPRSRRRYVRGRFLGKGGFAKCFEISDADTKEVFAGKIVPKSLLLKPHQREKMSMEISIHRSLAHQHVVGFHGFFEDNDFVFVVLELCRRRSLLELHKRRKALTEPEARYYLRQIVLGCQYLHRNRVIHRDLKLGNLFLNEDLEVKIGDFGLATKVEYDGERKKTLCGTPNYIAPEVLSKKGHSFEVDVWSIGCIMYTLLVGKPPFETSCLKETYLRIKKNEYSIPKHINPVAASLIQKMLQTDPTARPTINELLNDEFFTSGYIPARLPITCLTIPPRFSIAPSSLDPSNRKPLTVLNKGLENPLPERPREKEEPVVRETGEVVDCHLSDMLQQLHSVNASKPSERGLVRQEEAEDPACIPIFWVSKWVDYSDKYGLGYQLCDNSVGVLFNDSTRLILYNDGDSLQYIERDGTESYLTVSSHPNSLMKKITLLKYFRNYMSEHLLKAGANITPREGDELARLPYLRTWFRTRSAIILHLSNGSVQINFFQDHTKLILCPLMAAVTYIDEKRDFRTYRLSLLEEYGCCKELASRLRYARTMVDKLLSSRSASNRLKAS
Test: Cellular Plk1 kinase activity: nucleophosmin (B23) Ser4 phosphorylation in HCT116 cells (MSD electrochemiluminescence)
Format: cell-based
Design: host or cells: HCT116
Details: 100 ng/ml nocodazole, 4 hours after compound addition, read-out: Biochemical IC50 Nucleophosmin assay

compound | IC50
CCC1C(=O)N(C)c2cnc(Nc3ccc(C(=O)N[C@H]4CC[C@H](N5CCN(CC6CC6)CC5)CC4)cc3OC)nc2N1N(C)CC (relative stereo) [Compound 26] | < 100 nM
CCC1C(=O)N(C)c2cnc(Nc3ccc(C(=O)NCC4CCN(CC)CC4)cc3OC)nc2N1N(C)CC1CCC1 (stereo not drawn) [Compound 34] | < 500 nM
CCC1C(=O)N(C)c2cnc(Nc3ccc(C(=O)NC4CCN(C)CC4)cc3OC)nc2N1N(C)C (single isomer, unassigned) [Compound 36] | > 1000 nM
